Reference source: ChEMBL document CHEMBL4477218

test system: Staphylococcus aureus; assay: Antibacterial activity against TMP/methicillin-resistant Staphylococcus aureus harboring DHFR F98Y mutant after 18 hrs by CLSI M100-S16 method; format: functional
measuredEndpoint: MIC
In your response, the unit should come after the numeric value.

Reference set, count: 5
Given the compound CCc1nc(N)nc(N)c1C#CC(C)c1cc(OC)cc(-c2ccncc2)c1 (stereo unspecified) , what is its reported MIC?
2.5 µg/mL

Given the entry CCc1nc(N)nc(N)c1C#C[C@H](C)c1cc(-c2ccc(C(=O)O)cc2)ccc1OC , report its measured MIC.
0.156 µg/mL

Quick one: MIC for CCc1nc(N)nc(N)c1C#C[C@H](C)c1cc(OC)cc(-c2ccncc2)c1 ?
0.625 µg/mL

If you can, please state the reported MIC value of CCc1nc(N)nc(N)c1C#CCc1cc(OC)c(OC)c(-c2ccncc2)c1 .
0.625 µg/mL

Fill in the blank: the reported MIC of CCc1nc(N)nc(N)c1C#C[C@@H](C)c1cc(-c2ccncc2)ccc1OC is ____.
1.25 µg/mL

Next:
Param item = CCc1nc(N)nc(N)c1C#CC(C)c1cc(-c2ccncc2)ccc1OC (stereo unspecified) ; retrieve measured MIC.
2.5 µg/mL
